# inhibition per entry
System: Methionine sulfoxide reductase A (Bos taurus)
Experiment: bovine MsrA enzyme inhibitors, primary screen, biochemical, absorbance, HTS (AID 651718);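 also: 0% = vehicle wells with enzyme and 100% = reference inhibitor wells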
Settings: purified bovine MsrA, absorbance read-out; at 15.5 µM; stronger effect = higher value
Among all 360,000 compounds or so, about 2,700 (0.75%) were called active. The sample as a whole holds a higher share of actives than the screen did.

Worked cases, inhibition given:
compound: COc1cc(C2CC(=O)N3CN(Cc4ccccc4)CSC3=C2C#N)ccc1OCc1ccccc1 (stereo not drawn)
studyTarget: Methionine sulfoxide reductase A (Bos taurus)
inhibition: 0.9% (inactive)
--
compound: O=C(O)c1ccc(N/N=C/c2cn(-c3ccccc3)nc2-c2cccs2)cc1
studyTarget: Methionine sulfoxide reductase A (Bos taurus)
inhibition: 8.7% (active)
--
compound: Cc1ccc(N2CCN(C3=NC(=O)/C(=C\c4cccs4)S3)CC2)cc1
studyTarget: Methionine sulfoxide reductase A (Bos taurus)
inhibition: 5.14% (active)
--
compound: CC(C)CNc1cccc2c1S(=O)(=O)N[C@H](CC(C)C)CO2
studyTarget: Methionine sulfoxide reductase A (Bos taurus)
inhibition: 2.13% (inactive)
--
compound: C=CCN=C1NC(c2ccccc2)C(C(=O)OC)=C(C)N1Cc1ccc(C(F)(F)F)cc1 (stereo not drawn)
studyTarget: Methionine sulfoxide reductase A (Bos taurus)
inhibition: -1.03% (inactive)
--
compound: COc1ccc(SSc2ccc(OC)cc2C(=O)O)c(C(=O)O)c1
studyTarget: Methionine sulfoxide reductase A (Bos taurus)
inhibition: 3.29% (inactive)
--
compound: N=C1c2ccccc2-c2ccccc21
studyTarget: Methionine sulfoxide reductase A (Bos taurus)
inhibition: 0.22% (inactive)
--
compound: CCOC(=O)C1=CCC2C(=O)N(Cc3ccccc3)C(=O)C12 (stereo not drawn)
studyTarget: Methionine sulfoxide reductase A (Bos taurus)
inhibition: -0.57% (inactive)
--
compound: CCN(CC)C(=O)c1sc(NC(=O)c2ccco2)c(C#N)c1C
studyTarget: Methionine sulfoxide reductase A (Bos taurus)
inhibition: 4.94% (active)
--
compound: COC(=O)C1=C(C)N(Cc2ccc(C(F)(F)F)cc2)C(=NCc2ccccc2)NC1c1ccccc1C(F)(F)F (stereo not drawn)
studyTarget: Methionine sulfoxide reductase A (Bos taurus)
inhibition: 2.37% (inactive)

Asked: // query inhibition value for entry CC(=NNC(=O)c1ccc2nc[nH]c2c1)c1ccc(Br)cc1
Given back: -0.04% (inactive)

Asked: Requested field: inhibition. Item: NC(=O)c1ccc(-c2csnn2)cc1
Given back: 1.41% (inactive)

Asked: Give its inhibition value. Item: COc1cc(C=NC2CCCCC2)ccc1O
Given back: 3.96% (inactive)

Asked: Query (compound): O=Cc1cn(-c2ccccc2)nc1-c1ccccn1 ; field requested: inhibition
Given back: 9.1% (active)

Asked: Please give the measured inhibition for this compound: CC(=O)c1ccc(N2CCN(C(=O)c3ccc4nc[nH]c4c3)CC2)cc1
Given back: 4.75% (active)

Asked: Consider the compound CC(=O)C1=C(C)NC(C)=C(C(C)=O)C1c1cn(-c2ccccc2)nc1-c1cccs1 and give its measured inhibition.
Given back: 1.65% (inactive)

Asked: Entry under review: CCc1nc2ccc(C(=O)N3CCN(c4cccc(Cl)c4)CC3)cc2nc1CC . Reported inhibition?
Given back: 0.35% (inactive)

Asked: Fill in the blank: the reported inhibition of O=S(=O)(c1cccs1)N1CCCc2nc(-c3ccc(Br)cc3)ccc21 is ____.
Given back: 0.56% (inactive)

Asked: Sample CC(/C=N/NC(=O)c1ccncc1)=C\c1ccco1 — what was its inhibition?
Given back: 4.8% (active)

Asked: Report inhibition for Cc1cc(C(=O)N/N=C/c2ccc(N3CCOCC3)cc2)c(C)o1 please.
Given back: 5.02% (active)

Asked: Entry Cc1ccc(CSc2nsc(C)c2C#N)cc1 : reported inhibition = ?
Given back: 0.38% (inactive)

Asked: What measured inhibition goes with Cc1c(C(=O)OC(C)C)sc(NC(=O)c2cccnc2)c1C#N ?
Given back: 0.08% (inactive)

Asked: Give its inhibition value. Item: CCC1S/C(=N/N=C/c2ccco2)NC1=O (stereo not drawn)
Given back: 4.55% (active)

Asked: Name the reported inhibition value associated with the compound O=C(COC(=O)COc1cc(Cl)c(Cl)cc1Cl)NC1CC1
Given back: 3.33% (inactive)

Asked: Could you share which inhibition value was measured for O=C1N=C(N2CCOCC2)S/C1=C\C=C/c1ccccc1 ?
Given back: 3.23% (inactive)

Asked: Item under review: Cc1ccc(NC(=O)N2c3ccccc3SC2c2ccco2)c(C)c1 (stereo not drawn) . Reported inhibition?
Given back: -0.74% (inactive)

Asked: May I ask what inhibition has been recorded for O=C(COC(=O)/C=C/c1cn(-c2ccccc2)nc1-c1cccnc1)Nc1ccc(Cl)cc1Cl ?
Given back: 0.05% (inactive)

Asked: Endpoint output: inhibition of O=C(NNC(=S)NC(=O)c1cn(-c2ccccc2)nc1-c1ccccc1)c1ccncc1 . Value?
Given back: 2.54% (inactive)

Asked: Which measured inhibition value corresponds to CN1CCNC(=O)C1CC(=O)NCCC1=CCCCC1 (stereo not drawn) ?
Given back: 2.03% (inactive)
